system tested: T1, PD-1 protein (human, UniProt Q15116 25-167, limits assumed)
T1 construct: also called human PD-1
T1 sequence (Q15116 25-167 limits assumed): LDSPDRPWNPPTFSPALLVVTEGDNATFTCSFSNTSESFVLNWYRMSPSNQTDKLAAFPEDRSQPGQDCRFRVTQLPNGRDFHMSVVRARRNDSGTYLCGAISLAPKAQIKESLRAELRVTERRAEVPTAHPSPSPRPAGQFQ
assay procedure: ELISA, PD-1 coated
Kindly supply the reported OD450 at 2 µg/mL values for the records listed here.
One number for each entry, in OD450.

Some solved cases for reference:
- binder: "504#SS30 (Fc fusion, not shown: a dimerising Fc or GST; small tags and cut ends, VHH-FC construct from HEK293 cells) VHH: EVQLVETGGGLVQAGGSLRLACEVSGRTFSSYAMGWFRQAPGREREFVASIRVSGGITDYADSVKGRFTISRDNAKDTVYLQMINLKPEDTAVYYCNADISRYRFSRGDYWGKGTLVTVSS"
  OD450 at 2 µg/mL [OD450]: 0.04
- binder: "504#SS15 (Fc fusion, not shown: a dimerising Fc or GST; small tags and cut ends, VHH-FC construct from HEK293 cells) VHH: QVQLVESGGGLVQPGGSLRLSCAASGFTFSNYAMTWYRQAPGKERELVAAISSAGYTTTYAGSVKGRFTISRDNAKNTVYLQMNSLNPEDTAVYYCNAGRLSYGGSYYPNDDYWGQGTQVTVSS"
  OD450 at 2 µg/mL [OD450]: 0.05
- binder: "504#SS23 (Fc fusion, not shown: a dimerising Fc or GST; small tags and cut ends, VHH-FC construct from HEK293 cells) VHH: QVQLVESGGGLVQPGGSLRLSCAASGFTFSSYVMSWVRQAPGKGLEWVSAINSGGSSSSYPESVKDRFTVSRDNAKNTLYLQMNSLKPEDTAVYFCAAKNVPGFYYSDYANHEYDYWGQGTQVTVSS"
  OD450 at 2 µg/mL [OD450]: 3

Proceed to the following item.
[Q] # get_value(readout='OD450 at 2 µg/mL', item= 504#SS8 (Fc fusion, VHH-FC construct from HEK293 cells; not shown: The (G4S)3 linker leading to it is left out with it) VHH: EVQVVESGGGLVQAGGSLRLSCTASGRTFSNYAMGWFRQAPGKEREFVASVTWGGSGTFYADSVKGRFTISRDNIKNTVYLQMNSLKPEDTAVYYCAADNVGDSWYSDDYKYWGQGTQVTVSS )
[A] 0.04
